Test: qHTS assay to identify small molecule agonists of the constitutive androstane receptor (CAR) signaling pathway - cell viability counter screen (AID 1224836); further: nearly all actives have a fitted effect of over 45% in size
Conditions: HepG2-CYP2B6-hCAR viability, CellTiter-Fluor, 23 h, PK11195 added to every well; series mostly up to 92.4 µM
Results filed as inconclusive are left out. Active and inactive are the calls of the source. The call rests on the fitted dose curve; in most records, active means well fitted cell-killing curve with a large enough effect in the repeat runs; inconclusive means weak or mixed curves, or effect the other way; inactive means flat fitted curve, though single readings scatter.
Just give me one of these, please: true for active, false for inactive

The following compounds have reported results that may help.
COMPOUND: O=C(c1ccccc1)c1ccc(Cl)cc1
CATEGORY: false

COMPOUND: Cc1ccc(Cl)c(N)c1Cl
CATEGORY: false

COMPOUND: N#Cc1nc(Cl)c(Cl)c(Cl)c1Cl
CATEGORY: true

For CSc1nnc(C(C)(C)C)c(=O)[nH]1 , what call appears in the results of this test?
false
